// provenance: ChEMBL document CHEMBL5058577

Property: Population Mitotic Cells (%); scope: individual compounds
test system: HEK-293T; assay: Multiplex assay against HEK293T; type: toxicity, cell-based; settings: human, 24 h, 1 µM, compound concentration 1 uM, replicate 2
Please state the figure in %; there is no need to write the unit.

INSERT INTO assay_data (structure_as_smiles, u, reading) VALUES
  ('CC(/C=C1\SC(=S)N(CCCC(=O)Nc2ccc(C(=O)O)c(O)c2)C1=O)=C\c1ccccc1', '%', 68),
  ('Cc1cccc(NC(=O)CN2CCC(c3ccccn3)CC2)c1.Cl.Cl', '%', 54),
  ('CC[C@@H](C)Nc1nc(C)nc2c(-c3ccc(OC)nc3C)c(C)nn12', '%', 54);

Incoming: Please look up its Population Mitotic Cells (%): CC(C)(C)c1cc(NC(=O)Nc2ccc(-c3cn4c(n3)sc3cc(OCCN5CCOCC5)ccc34)cc2)no1
Outgoing: 61

====

test system: Fibroblast; assay: Multiplex assay against human fibroblast; type: toxicity, cell-based; settings: 12 h, 10 µM, compound concentration 10 uM, replicate 2
Property: Population Pyknosed Nuclei (%); scope: individual compounds

Record excerpt, results attached:
INSERT INTO assay_data (compound, reading) VALUES
  ('O=C1[C@H](Cc2ccc(O)cc2)N2C(=O)CCN(C(=O)NCc3ccccc3)[C@H]2CN1Cc1cccc2ccccc12', '30%'),
  ('Cc1sc2c(c1C)C(c1ccc(Cl)cc1)=N[C@@H](CC(=O)NCCCCCCCCNC(=O)COc1cccc3c1C(=O)N(C1CCC(=O)NC1=O)C3=O)c1nnc(C)n1-2 (some centres not stated)', '45%'),
  ('Br.CS(=O)(=O)Nc1c(O)ccc2c1CCCC2C1=NCCN1 (configuration not stated)', '16%');

Please turn your attention to the following entry.
Incoming: Please look up its Population Pyknosed Nuclei (%): Cl.N=C(N)NC(=O)Cc1c(Cl)cccc1Cl [GUANFACINE HYDROCHLORIDE]
Outgoing: 29%

====

test system: U2OS; assay: Multiplex assay against U2OS; format: toxicity, cell-based; conditions: human, 12 h, 1 µM, compound concentration 1 uM, replicate 2
Parameter Measured: Population Healthy Nuclei (%)

INSERT INTO measurements (compound, reading) VALUES
  ('Br.CS(=O)(=O)Nc1c(O)ccc2c1CCCC2C1=NCCN1 (centres undefined)', '82%'),
  ('NCCc1cn(S(=O)(=O)c2c(Cl)nc3sccn23)c2ccccc12.O=C(O)C(=O)O', '72%'),
  ('N#Cc1cc(F)cc(-c2nc(-c3ccc(F)cn3)no2)c1', '79%'),
  ('CC(C)c1noc(N2CCC(COc3ccc(-c4ccc(S(C)(=O)=O)cc4)nc3)CC2)n1 [GSK-1292263]', '77%');

Please turn your attention to the following entry.
Incoming: Please look up its Population Healthy Nuclei (%): CC(C)(C)c1cc(NC(=O)Nc2ccc(-c3cn4c(n3)sc3cc(OCCN5CCOCC5)ccc34)cc2)no1 [QUIZARTINIB]
Outgoing: 70%

====

system: HEK-293T; test: Multiplex assay against HEK293T; type: toxicity, cell-based; details: human, 24 h, 1 µM, compound concentration 1 uM, replicate 2
The label depends only on Population Mitochondria Different-Phenotype (%): MET if it is at least 40%, NOT MET if it is smaller.

# example entries with known answers
INSERT INTO results (compound, class_assignment) VALUES
  ('O=C(CCCc1ccccc1)Nc1nc2ccccc2c(=O)s1', 'NOT MET'),
  ('CC(C)c1noc(N2CCC(COc3ccc(-c4ccc(S(C)(=O)=O)cc4)nc3)CC2)n1 [GSK-1292263]', 'NOT MET'),
  ('COc1cccc2c1c(NS(=O)(=O)c1ccc(Cl)s1)nn2Cc1cccc(CNC(=O)C(C)(C)O)c1', 'NOT MET');

Incoming: # check: Population Mitochondria Different-Phenotype (%) of CCCOc1ccc2[nH]cc(C3=CCNCC3)c2n1.Cl is greater than or equal to 40%
Outgoing: NOT MET

Incoming: # check: Population Mitochondria Different-Phenotype (%) of CC(=O)Nc1cccc2c1c(Sc1ccc(Cl)cc1)c(C)n2CC(=O)O [AZD1981] is greater than or equal to 40%
Outgoing: MET

Incoming: # check: Population Mitochondria Different-Phenotype (%) of CN[C@@H](C)C(=O)N[C@H](C(=O)N1CCC[C@H]1C(=O)Nc1snnc1-c1ccccc1)C1CCCCC1 [GDC-0152] is greater than or equal to 40%
Outgoing: MET

Incoming: # check: Population Mitochondria Different-Phenotype (%) of CC[C@@H](C)Nc1nc(C)nc2c(-c3ccc(OC)nc3C)c(C)nn12 [PEXACERFONT] is greater than or equal to 40%
Outgoing: NOT MET

Incoming: # check: Population Mitochondria Different-Phenotype (%) of CCc1cc2cc(NS(=O)(=O)c3ccc(C#N)cc3)ccc2n(CC)c1=O is greater than or equal to 40%
Outgoing: MET

Incoming: # check: Population Mitochondria Different-Phenotype (%) of CN(C)C(=O)Cn1cc(-c2ccc(-c3cncc4ccccc34)cc2)cn1 is greater than or equal to 40%
Outgoing: MET

Incoming: # check: Population Mitochondria Different-Phenotype (%) of O=C1[C@H](Cc2ccc(O)cc2)N2C(=O)CCN(C(=O)NCc3ccccc3)[C@H]2CN1Cc1cccc2ccccc12 is greater than or equal to 40%
Outgoing: MET

Incoming: # check: Population Mitochondria Different-Phenotype (%) of Cc1sc2c(c1C)C(c1ccc(Cl)cc1)=N[C@@H](CC(=O)NCCCCCCCCNC(=O)COc1cccc3c1C(=O)N(C1CCC(=O)NC1=O)C3=O)c1nnc(C)n1-2 (some centres undefined) is greater than or equal to 40%
Outgoing: MET

Incoming: # check: Population Mitochondria Different-Phenotype (%) of Cl.NCCc1ccc(O)c(O)c1 [DOPAMINE HYDROCHLORIDE] is greater than or equal to 40%
Outgoing: MET

Incoming: # check: Population Mitochondria Different-Phenotype (%) of Cc1noc(-c2ccc(-c3ccc(CC(=O)O)cc3)cc2)c1NC(=O)O[C@H](C)c1ccccc1Cl is greater than or equal to 40%
Outgoing: MET

====

system: HEK-293T; assay: Multiplex assay against HEK293T; format: toxicity, cell-based; settings: human, 12 h, 1 µM, compound concentration 1 uM, replicate 2
Parameter Measured: Total Cell Count
API doc: respond with a numeric literal and nothing else, no unit.

Incoming: Please look up its Total Cell Count: Cc1sc2c(c1C)C(c1ccc(Cl)cc1)=N[C@@H](CC(=O)NCCCCCCCCNC(=O)COc1cccc3c1C(=O)N(C1CCC(=O)NC1=O)C3=O)c1nnc(C)n1-2 (some centres not stated)
Outgoing: 205

Incoming: Please look up its Total Cell Count: CC[C@@H](C)Nc1nc(C)nc2c(-c3ccc(OC)nc3C)c(C)nn12
Outgoing: 314

Incoming: Please look up its Total Cell Count: CC(/C=C1\SC(=S)N(CCCC(=O)Nc2ccc(C(=O)O)c(O)c2)C1=O)=C\c1ccccc1
Outgoing: 389

Incoming: Please look up its Total Cell Count: CCCCC(=O)N(Cc1ccc(-c2ccccc2-c2nnn[nH]2)cc1)[C@H](C(=O)O)C(C)C
Outgoing: 290

Incoming: Please look up its Total Cell Count: Cl.NCCc1ccc(O)c(O)c1 [DOPAMINE HYDROCHLORIDE]
Outgoing: 372

Incoming: Please look up its Total Cell Count: CN[C@@H](C)C(=O)N[C@H](C(=O)N1CCC[C@H]1C(=O)Nc1snnc1-c1ccccc1)C1CCCCC1
Outgoing: 314

Incoming: Please look up its Total Cell Count: CC(C)c1noc(N2CCC(COc3ccc(-c4ccc(S(C)(=O)=O)cc4)nc3)CC2)n1
Outgoing: 522

====

Property: Population Normal (%); scope: individual compounds
test system: U2OS; assay: Multiplex assay against U2OS; assay type: toxicity, cell-based; conditions: human, 12 h, 10 µM, compound concentration 10 uM, replicate 2
Please state the figure in %; there is no need to write the unit.

INSERT INTO assay_data (compound, parameter_measured, u, reading) VALUES
  ('O=C(CCCc1ccccc1)Nc1nc2ccccc2c(=O)s1', 'Population Normal (%)', '%', 95);

Incoming: Please look up its Population Normal (%): C[C@H](N)COC(=O)[C@@H](CCCCN)NC(=O)Cc1c(-c2ccc3ccccc3c2)[nH]c2c1ccc1ccccc12
Outgoing: 100

Incoming: Please look up its Population Normal (%): CC(C)COc1ccc(CNC(=O)N(Cc2ccc(F)cc2)C2CCN(C)CC2)cc1
Outgoing: 95

Incoming: Please look up its Population Normal (%): Cc1c(CC(=O)O)c2cccnc2n1Cc1ccc(S(C)(=O)=O)cc1C(F)(F)F
Outgoing: 99

Incoming: Please look up its Population Normal (%): CC(/C=C1\SC(=S)N(CCCC(=O)Nc2ccc(C(=O)O)c(O)c2)C1=O)=C\c1ccccc1
Outgoing: 100

Incoming: Please look up its Population Normal (%): CC(C)c1noc(N2CCC(COc3ccc(-c4ccc(S(C)(=O)=O)cc4)nc3)CC2)n1
Outgoing: 100

Incoming: Please look up its Population Normal (%): Cc1cccc(NC(=O)CN2CCC(c3ccccn3)CC2)c1.Cl.Cl
Outgoing: 98

Incoming: Please look up its Population Normal (%): CC(C)(C)c1cc(NC(=O)Nc2ccc(-c3cn4c(n3)sc3cc(OCCN5CCOCC5)ccc34)cc2)no1
Outgoing: 94

Incoming: Please look up its Population Normal (%): CCCCC(=O)N(Cc1ccc(-c2ccccc2-c2nnn[nH]2)cc1)[C@H](C(=O)O)C(C)C
Outgoing: 99

Incoming: Please look up its Population Normal (%): NCCc1cn(S(=O)(=O)c2c(Cl)nc3sccn23)c2ccccc12.O=C(O)C(=O)O
Outgoing: 95

Incoming: Please look up its Population Normal (%): CN(C)C(=O)Cn1cc(-c2ccc(-c3cncc4ccccc34)cc2)cn1
Outgoing: 96

Incoming: Please look up its Population Normal (%): Br.CS(=O)(=O)Nc1c(O)ccc2c1CCCC2C1=NCCN1 (configuration not stated)
Outgoing: 100
